Exercise: state measured GI50 for each of the compounds provided.
# Tested on: MALME-3M melanoma
# assayProcedure: NCI tumour cell line growth inhibition, 48 h

Q: Note GI50 for the compound shown: `Clc1ccc(CO/N=C(\Cn2ccnc2)c2ccc(Cl)cc2Cl)c(Cl)c1`
Result: 1660 nM

Q: Consider the compound `COc1ccc2c(c1)Cc1c-2c(NN)nc2ccccc12` . State its measured GI50.
Result: > 100000 nM

Q: Give me measured GI50, please, for this compound: `C/C(=C\c1c[nH]c2ccccc12)[N+](=O)[O-]`
Result: 2540 nM

Q: Identify measured GI50 corresponding to `O=C1/C(=C/C(Cl)=C/c2ccccc2)SC(=S)N1CCc1ccc(O)cc1`
Result: 1440 nM

Q: For the compound [N-]=[N+]=CC(=O)OCC(N)C(=O)O (stereo not given) , report GI50.
Result: 6560 nM

Q: Entry `C=C[C@]1(C)C=C2C(=O)[C@@]3(O)OC(=O)[C@@]4(CCCC(C)(C)[C@H]34)[C@@]2(O)CC1` needs its GI50 filled in; supply it.
Result: 926 nM

Q: Look up and state reported GI50 for Cn1cc(C2=C(c3c4n(c5ccccc35)CCC(CN)CC4)C(=O)NC2=O)c2ccccc21 (stereo not given)
Result: 3800 nM

Q: Query GI50 for `CC/C(=C(\CC)c1ccc(OCCN(CC)CC)cc1)c1ccc(OCCN(CC)CC)cc1`
Result: 1810 nM

Q: Name the recorded GI50 of the compound listed here: CC1(C)C2CCC13C(=O)C1OC3(C2)C2C(=O)c3c(O)ccc(O)c3C(=O)C12 (stereo not given)
Result: 18300 nM

Q: Output GI50 of `COC(=O)c1c2c(c(C)[n+]([O-])c1C)C(=O)C(NCc1ccc(F)c(F)c1)=CC2=O`
Result: 238 nM
